Each item that follows carries a reported switch fluorescence ratio.
- System: ATP;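 further: ATP exposure 15 min at 22 °C before imaging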
- protocol notes: switch fluorescence ratio, 500 uM ATP over buffer (Cy3 cluster intensity, sum of 5 cycles each) (fold (ratio)); higher = stronger signal-on switching upon ATP binding; sequences stand for … in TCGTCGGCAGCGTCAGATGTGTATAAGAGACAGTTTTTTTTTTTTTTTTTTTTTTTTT…TC
- particulars: aptamer strand: ATP DNA aptamer (quencher-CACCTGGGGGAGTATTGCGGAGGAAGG + anchor), 100 nM annealed; ATP concentration: 500 uM
Kindly provide the number alone.

// below: answered sequences
Value of measured switch fluorescence ratio for the entry CATGAATATG : 1.01

Value of measured switch fluorescence ratio for the entry TTTAATACTG : 1.08

Value of measured switch fluorescence ratio for the entry GGCTGGGGCA : 0.979

Value of measured switch fluorescence ratio for the entry TGGGTGTCTG : 0.983

Value of measured switch fluorescence ratio for the entry AGATGTCTGG : 0.99

Others:
Value of measured switch fluorescence ratio for the entry GGAACAAGGT : 0.988

Value of measured switch fluorescence ratio for the entry TATGACGCAG : 0.993

Value of measured switch fluorescence ratio for the entry GACTAACTAC : 1.25

Value of measured switch fluorescence ratio for the entry GGCTGACGTC : 1

Value of measured switch fluorescence ratio for the entry ACATGGAGGG : 1.01

###

- Tested on: ATP;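 further: ATP exposure 15 min at 22 °C before imaging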
- protocol notes: switch fluorescence ratio, 500 uM ATP over buffer (Cy3 cluster intensity, sum of 5 cycles each) (fold (ratio)); higher = stronger signal-on switching upon ATP binding; sequences stand for … in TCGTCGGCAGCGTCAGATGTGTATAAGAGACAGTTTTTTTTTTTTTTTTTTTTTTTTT…TC
- particulars: aptamer strand: ATP DNA aptamer (quencher-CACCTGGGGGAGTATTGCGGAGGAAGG + anchor), 100 nM annealed; ATP concentration: 500 uM
Each item that follows carries a reported switch fluorescence ratio.
Kindly provide the number alone.

Value of measured switch fluorescence ratio for the entry CGTTTGTTGC : 0.974

Value of measured switch fluorescence ratio for the entry AAGGAATTGT : 0.973

Value of measured switch fluorescence ratio for the entry GAGTAGGAAG : 0.961

Value of measured switch fluorescence ratio for the entry CTTATACTGG : 1.02

Value of measured switch fluorescence ratio for the entry AGCTTCTTAT : 1.03

Read the next record carefully.
Value of measured switch fluorescence ratio for the entry CTTGTGTGTC : 0.999

###

- Test system: ATP;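 further: ATP exposure 15 min at 22 °C before imaging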
- protocol notes: switch fluorescence ratio, 500 uM ATP over buffer (Cy3 cluster intensity, sum of 5 cycles each) (fold (ratio)); higher = stronger signal-on switching upon ATP binding; sequences stand for … in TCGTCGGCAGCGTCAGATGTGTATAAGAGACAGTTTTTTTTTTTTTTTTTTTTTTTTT…TC
- particulars: aptamer strand: ATP DNA aptamer (quencher-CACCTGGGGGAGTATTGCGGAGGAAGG + anchor), 100 nM annealed; ATP concentration: 500 uM
measured endpoint: switch fluorescence ratio
Kindly provide the number alone.

// below: answered sequences
switch fluorescence ratio for ATP with input AAGTGTATGC equals 1.01

switch fluorescence ratio for ATP with input CAGTTTTTAT equals 1.01

switch fluorescence ratio for ATP with input TTGAGGGGGT equals 1.05

switch fluorescence ratio for ATP with input TGGGATAGGT equals 1.01

switch fluorescence ratio for ATP with input TTTTTTCATC equals 1.03

Others:
switch fluorescence ratio for ATP with input AGGGGGTGGC equals 0.986

switch fluorescence ratio for ATP with input TTTGTGGGA equals 0.997

switch fluorescence ratio for ATP with input TACGAATGGG equals 1.01

switch fluorescence ratio for ATP with input TTGTAATGTT equals 1.01

switch fluorescence ratio for ATP with input TAAACTGACG equals 1.03

switch fluorescence ratio for ATP with input AGAAGGGGGA equals 1.01

switch fluorescence ratio for ATP with input GGGGTTTCTT equals 0.987

switch fluorescence ratio for ATP with input TTTAGTTGTT equals 1.01

switch fluorescence ratio for ATP with input TCCGAAGGAA equals 1.11

switch fluorescence ratio for ATP with input TTGAAATTTG equals 1

switch fluorescence ratio for ATP with input TTAATGAATT equals 0.994

switch fluorescence ratio for ATP with input TGTGAAGGGC equals 1.02

switch fluorescence ratio for ATP with input TGGAAGTGGG equals 1.03

switch fluorescence ratio for ATP with input GATTTTGCAT equals 1

switch fluorescence ratio for ATP with input GGCAGTCCTT equals 1.01

switch fluorescence ratio for ATP with input GCTCTTGACA equals 1

switch fluorescence ratio for ATP with input CAATTTCGTT equals 1.01

switch fluorescence ratio for ATP with input TCCGGGGGCA equals 1.59

switch fluorescence ratio for ATP with input AGTGTGCTGG equals 1.01

switch fluorescence ratio for ATP with input CGCCCCTGTA equals 1.04

switch fluorescence ratio for ATP with input CTCGTATTTA equals 0.976

switch fluorescence ratio for ATP with input GATCCTTTAT equals 0.979

switch fluorescence ratio for ATP with input ACATTGATCG equals 1.03
